# assayedTarget: T1, human MerTK on human macrophages (human, UniProt Q12866 21-999)
# T1 sequence: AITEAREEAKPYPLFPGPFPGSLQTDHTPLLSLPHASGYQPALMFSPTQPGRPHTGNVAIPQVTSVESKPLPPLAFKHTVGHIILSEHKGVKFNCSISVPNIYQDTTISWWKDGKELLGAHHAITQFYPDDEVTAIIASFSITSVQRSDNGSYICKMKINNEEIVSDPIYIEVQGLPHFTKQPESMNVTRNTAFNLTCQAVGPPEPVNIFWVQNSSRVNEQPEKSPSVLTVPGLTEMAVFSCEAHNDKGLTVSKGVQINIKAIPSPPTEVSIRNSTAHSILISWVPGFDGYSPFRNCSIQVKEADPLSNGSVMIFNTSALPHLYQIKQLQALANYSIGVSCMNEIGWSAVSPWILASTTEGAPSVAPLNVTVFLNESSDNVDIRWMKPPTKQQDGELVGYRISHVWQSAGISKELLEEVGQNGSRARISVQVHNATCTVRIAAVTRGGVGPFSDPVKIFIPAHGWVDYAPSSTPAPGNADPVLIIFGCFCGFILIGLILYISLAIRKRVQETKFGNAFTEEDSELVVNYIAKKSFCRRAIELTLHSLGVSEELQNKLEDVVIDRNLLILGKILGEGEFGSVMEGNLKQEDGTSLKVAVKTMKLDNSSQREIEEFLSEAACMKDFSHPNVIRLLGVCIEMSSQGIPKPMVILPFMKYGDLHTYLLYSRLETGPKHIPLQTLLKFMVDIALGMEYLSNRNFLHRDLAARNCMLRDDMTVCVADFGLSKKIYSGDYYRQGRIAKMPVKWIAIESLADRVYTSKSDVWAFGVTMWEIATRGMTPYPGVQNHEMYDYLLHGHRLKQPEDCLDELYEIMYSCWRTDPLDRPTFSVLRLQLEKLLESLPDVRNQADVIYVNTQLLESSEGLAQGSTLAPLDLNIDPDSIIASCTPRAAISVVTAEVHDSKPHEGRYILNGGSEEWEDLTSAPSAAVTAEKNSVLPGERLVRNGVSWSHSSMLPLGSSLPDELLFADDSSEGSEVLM
# assayProtocol: cell-based or functional assay
measuredProperty: Max Inhibition (%), efferocytosis by human macrophages, Average (3 Donors)

binder	unitAnnotation	recordedValue
h13B4.v16 (antibody, V domains shown, Humanized, human IgG1; also called 13B4 Fully Humanized; 13B4 Humanized polished mAb) VH: EVQLVESGEGLVQPGGSLRLSCAASGFSLSSYAMGWVRQAPGKGLEYVGIINSYGNTYYANWAKGRFTISRDNSKNTVYLQMGSLRAEDMAVYYCARDPGVSSNLWGRGTLVTVSS VL: DIQMTQSPSTLSASVGDRVTITCQASQNIYSGLAWYQQKPGKAPKLLIYGASKLASGVPSRFSGSGSGTEFTLTISSLQPDDFATYYCQATYYSSNSVAFGGGTKVEIK	%	83
